Lab note: GI50 readings collected with Gurav for the following compounds.
quantity: GI50 (nM)

>>> assay_result("COc1cc(C2C3=C(COC3=O)Nc3ccc4nc(C)sc4c32)ccc1O (stereo not shown)")
180
>>> assay_result("COc1cc(C2C3=C(COC3=O)Nc3ccc4ncsc4c32)ccc1O (stereo not shown)")
140
>>> assay_result("COc1ccc(C2C3=C(COC3=O)Nc3ccc4cn[nH]c4c32)cc1[N+](=O)[O-] (stereo not shown)")
140
>>> assay_result("COc1cc(C2C3=C(COC3=O)Nc3ccc4cc(C)[nH]c4c32)ccc1F (stereo not shown)")
2500
>>> assay_result("COc1cc(C2C3=C(COC3=O)Nc3onc(-c4ccc(Cl)cc4)c32)cc(OC)c1OC (stereo not shown)")
180
>>> assay_result("COc1ccc(-c2noc3c2C(c2ccc(OC)c(O)c2)C2=C(COC2=O)N3)cc1 (stereo not shown)")
140
>>> assay_result("COc1cc(C2C3=C(COC3=O)Nc3ccc4cc[nH]c4c32)ccc1F (stereo not shown)")
2500
